System: Alternaria solani
Assay: Fungicidal activity against Alternaria solani assessed as inhibition of mycelium growth at 50 mg/L after 72 hrs
Assay type: functional
MEASURED_QUANTITY: inhibition at 50 µg/mL (%)
One number for each entry, in %.

COMPOUND_STRUCTURE_STRING | EXPERIMENTAL_RESULT
CCOCCOC(=O)c1c(C(C)C)nn(-c2ccc(C)cc2)c1N | 12

For each listed entry, give its inhibition at 50 µg/mL.
1. CCOCCOC(=O)c1c(C(C)C)nn(-c2ccc(Cl)cc2)c1N
2. CCOCCOC(=O)c1c(SC)nn(-c2ccc(Cl)cc2)c1N
3. CCOCCOC(=O)c1c(SC)nn(-c2ccc(C)cc2)c1N
4. CCOCCOC(=O)/C(C#N)=C(/CC)NNc1c(Cl)cccc1Cl
5. CCOCCOC(=O)/C(C#N)=C(/CC)NNc1c(Cl)cc(Cl)cc1Cl

Result:
0
20
28
10
25
